- assayed.target: XIAP BIR3 (Homo sapiens, UniProt P98170)
- Sequence (P98170 241-356): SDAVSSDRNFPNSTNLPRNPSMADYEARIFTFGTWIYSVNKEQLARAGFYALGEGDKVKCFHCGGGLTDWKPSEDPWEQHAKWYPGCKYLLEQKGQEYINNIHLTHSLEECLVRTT
- test.protocol: Fluorescence polarization (FP) based competitive binding assay to XIAP BIR3
- run.conditions: FP binding, XIAP BIR3 30 nM, SM5F 5 nM
quantity.measured: IC50

Worked cases, IC50 given:
Looking up "CN[C@@H](C)C(=O)N[C@H]1CN(C(=O)CC2CCCC2)CC[C@H]2CC[C@@H](C(=O)NC(c3ccccc3)c3ccccc3)N2C1=O" , I found its IC50 recorded as < 1 µM

The compound listed as "CN[C@@H](C)C(=O)N[C@H]1CN(C(=O)C[C@@H]2CCOC2)CC[C@H]2CC[C@@H](C(=O)NC(c3ccccc3)c3ccccc3)N2C1=O" has a reported IC50 of < 1 µM

Entry CN[C@@H](C)C(=O)N[C@H]1CN(C(=O)Cc2ccc(F)cc2)CC[C@H]2CC[C@@H](C(=O)NC3CCCc4ccccc43)N2C1=O (stereo partly drawn) — recorded IC50 = < 0.1 µM

According to the records, this compound "CN[C@@H](C)C(=O)N[C@H]1CN(C(=O)CC(C)C)CC[C@H]2CC[C@@H](C(=O)NC(c3ccc(F)cc3)c3ccc(F)cc3)N2C1=O" displays IC50 of < 1 µM

// sample "CN[C@@H](C)C(=O)N[C@H]1CN(C(=O)CCc2ccccc2)CC[C@H]2CC[C@@H](C(=O)NC(c3ccccc3)c3ccccc3)N2C1=O" , its IC50 was < 1 µM

Switching to the query record.
Query "CN[C@@H](C)C(=O)N[C@H]1CN(C(=O)[C@H]2CC[C@H](O)C2)CC[C@H]2CC[C@@H](C(=O)NC(c3ccccc3)c3ccccc3)N2C1=O" yields IC50 of < 1 µM

====

- Tested on: SK-OV-3 ovarian cancer cell line
- test.protocol: Cell growth inhibition, WST-8 assay, SK-OV-3
- Type: cell-based
- run.conditions: Homo sapiens, SK-OV-3, 96 h, 4 days, WST-8; read-out: SK-OV-3 IC50
pIC50: −log10 of the molar value.
quantity.measured: pIC50

The reported value for "CN[C@@H](C)C(=O)N[C@H]1CN(C(=O)Cc2ccc(F)cc2)CC[C@H]2CC[C@@H](C(=O)NCc3ccc(F)cc3)N2C1=O" in terms of pIC50 is > 6.00

Input "CN[C@@H](C)C(=O)N[C@H]1CN(C(=O)CC(C)C)CC[C@H]2CC[C@@H](C(=O)NC3CCCCC3)N2C1=O" . Output pIC50: > 4.00

Query "CN[C@@H](C)C(=O)N[C@H]1CN(C(=O)CC(C)C)CC[C@H]2CC[C@@H](C(=O)NCc3cccc4ccccc34)N2C1=O" yields pIC50 of > 5.00

// pIC50 value for "CN[C@@H](C)C(=O)N[C@H]1CN(C(=O)CC(C)C)CC[C@H]2CC[C@@H](C(=O)N[C@@H]3CCCc4ccccc43)N2C1=O" : > 6.00

Note to self: pIC50 recorded for "CN[C@@H](C)C(=O)N[C@H]1CN(C(=O)CCC(C)C)CC[C@H]2CC[C@@H](C(=O)NC(c3ccccc3)c3ccccc3)N2C1=O" was > 6.00

Noted for "CN[C@@H](C)C(=O)N[C@H]1CN(C(=O)CC(C)C)CC[C@H]2CC[C@@H](C(=O)NCc3ccccc3-c3ccccc3)N2C1=O" : its pIC50 reads > 5.00

Reported pIC50 of "CN[C@@H](C)C(=O)N[C@H]1CN(C(=O)Cc2ccccc2)CC[C@H]2CC[C@@H](C(=O)NC(c3ccc(F)cc3)c3ccc(F)cc3)N2C1=O" : > 6.00

What the record says about "CCCC(=O)N1CC[C@H]2CC[C@@H](C(=O)NC(c3ccccc3)c3ccccc3)N2C(=O)[C@@H](NC(=O)[C@H](C)NC)C1" : pIC50 is > 6.00

GET /value?item= "CN[C@@H](C)C(=O)N[C@H]1CN(C(=O)CCc2ccc(F)cc2)CC[C@H]2CC[C@@H](C(=O)NC(c3ccccc3)c3ccccc3)N2C1=O" &field=pIC50 returns > 6.00

Entry "CN[C@@H](C)C(=O)N[C@H]1CN(C(=O)CCCc2ccccc2)CC[C@H]2CC[C@@H](C(=O)NC(c3ccccc3)c3ccccc3)N2C1=O" ; pIC50 = > 6.00

More entries:
The compound listed as CN[C@@H](C)C(=O)N[C@H]1CN(C(=O)Cc2ccc(F)cc2)CC[C@H]2CC[C@@H](C(=O)NC3CCCc4ccccc43)N2C1=O (stereo partly drawn) shows pIC50 equal to > 6.00

The reported value for "CN[C@@H](C)C(=O)N[C@H]1CN(C(=O)CC2CCCC2)CC[C@H]2CC[C@@H](C(=O)NC(c3ccccc3)c3ccccc3)N2C1=O" in terms of pIC50 is > 6.00

# pIC50 of CN[C@@H](C)C(=O)N[C@H]1CN(C(=O)Cc2ccc(F)cc2)CC[C@H]2CCC(C(=O)NC(c3ccccc3)c3ccccc3)N2C1=O (stereo partly drawn) = > 6.00

Form: compound = "CN[C@@H](C)C(=O)N[C@H]1CN(C(=O)CC(C)(C)C)CC[C@H]2CC[C@@H](C(=O)NC(c3ccccc3)c3ccccc3)N2C1=O" ; pIC50 = > 6.00

Entry under test: "CN[C@@H](C)C(=O)N[C@H]1CN(C(=O)[C@H]2CC[C@H](O)C2)CC[C@H]2CC[C@@H](C(=O)NC(c3ccccc3)c3ccccc3)N2C1=O" . Its pIC50 was > 5.00

Noted for "CN[C@@H](C)C(=O)N[C@H]1CN(C(=O)C[C@@H]2CCOC2)CC[C@H]2CC[C@@H](C(=O)NC(c3ccccc3)c3ccccc3)N2C1=O" : its pIC50 reads > 5.00

// field: pIC50; key: "CN[C@@H](C)C(=O)N[C@H]1CN(C(=O)CC(C)C)CC[C@H]2CC[C@@H](C(=O)NC(c3ccccc3)c3ccccc3)N2C1=O" ; value = > 6.00

The recorded pIC50 for "CN[C@@H](C)C(=O)N[C@H]1CN(C(=O)CCc2ccccc2)CC[C@H]2CC[C@@H](C(=O)NC(c3ccccc3)c3ccccc3)N2C1=O" is > 6.00

Measured pIC50 of CN[C@@H](C)C(=O)N[C@H]1CN(C(=O)CC(C)C)CC[C@H]2CC[C@@H](C(=O)NC3CCc4ccccc43)N2C1=O (stereo partly drawn) : > 6.00

// "CN[C@@H](C)C(=O)N[C@H]1CN(C(=O)CC(C)C)CC[C@H]2CC[C@@H](C(=O)N[C@H]3CCc4ccccc43)N2C1=O" : pIC50 value = > 5.00

The compound identified as "CN[C@@H](C)C(=O)N[C@H]1CN(C(=O)CN2CCNC(=O)C2)CC[C@H]2CC[C@@H](C(=O)NC(c3ccccc3)c3ccccc3)N2C1=O" registered its pIC50 at < 6.00

For this compound ( "CN[C@@H](C)C(=O)N[C@H]1CNCC[C@H]2CC[C@@H](C(=O)NC(c3ccccc3)c3ccccc3)N2C1=O" ), measured pIC50 is > 5.00

Quick note, pIC50 for "CN[C@@H](C)C(=O)N[C@H]1CN(C(=O)CC(C)C)CC[C@H]2CC[C@@H](C(=O)NCC(c3ccccc3)c3ccccc3)N2C1=O" landed at > 5.00

Sample "CN[C@@H](C)C(=O)N[C@H]1CN(C(=O)C[C@@H](O)C(=O)O)CC[C@H]2CC[C@@H](C(=O)NC(c3ccccc3)c3ccccc3)N2C1=O" ; pIC50 observed: > 4.00

====

Recorded pIC50 by entry
- assayed.target: XIAP BIR3 (Homo sapiens)
- test.protocol: Fluorescence polarization (FP) based competitive binding assay to XIAP BIR3
- Parameters: human XIAP (residues 241-356) fused to His-tag; His-tag
- run.conditions: FP binding, XIAP BIR3 30 nM, SM5F 5 nM
pIC50: −log10 of the molar value.

Example compounds with recorded pIC50:
Result for "CN[C@@H](C)C(=O)N[C@H]1CN(C(=O)CC(C)C)CC[C@H]2CC[C@@H](C(=O)NC3CCCCC3)N2C1=O" , tested on XIAP BIR3 (Homo sapiens), pIC50: > 5.00

pIC50 for XIAP BIR3 (Homo sapiens) with input "CN[C@@H](C)C(=O)N[C@H]1CN(C(=O)C[C@@H](O)C(=O)O)CC[C@H]2CC[C@@H](C(=O)NC(c3ccccc3)c3ccccc3)N2C1=O" equals > 6.00

Reported pIC50 (XIAP BIR3 (Homo sapiens)) for entry "CN[C@@H](C)C(=O)N[C@H]1CN(C(=O)Cc2ccccc2)CC[C@H]2CC[C@@H](C(=O)NC(c3ccc(F)cc3)c3ccc(F)cc3)N2C1=O" is > 6.00

XIAP BIR3 (Homo sapiens) assay, compound "CN[C@@H](C)C(=O)N[C@H]1CN(C(=O)CC(C)(C)C)CC[C@H]2CC[C@@H](C(=O)NC(c3ccccc3)c3ccccc3)N2C1=O" , recorded pIC50 = > 6.00

The observed pIC50 for "CN[C@@H](C)C(=O)N[C@H]1CN(C(=O)CCCc2ccccc2)CC[C@H]2CC[C@@H](C(=O)NC(c3ccccc3)c3ccccc3)N2C1=O" when tested with XIAP BIR3 (Homo sapiens) stands at > 6.00

// switching to the query compound
Summary: "CN[C@@H](C)C(=O)N[C@H]1CN(C(=O)CN2CCNC(=O)C2)CC[C@H]2CC[C@@H](C(=O)NC(c3ccccc3)c3ccccc3)N2C1=O" , XIAP BIR3 (Homo sapiens), pIC50 = > 5.00
